species on record: Rattus norvegicus; test: Open TG-GATES - Regimen: Daily Repeat; format: toxicity, organism-based, Sprague-Dawley; parameters: regimen Daily Repeat, gender Male, age 6 weeks; details: in vivo, po, 0 mg/kg, 72 h, tissue Kidney, route gavage, dose level Control, time 3 day
The following compounds are shown together with reported KIDNEY_TOTAL values.
All answers are understood in g, so give the number only.

Examples with their reported KIDNEY_TOTAL follow.
INSERT INTO results (compound, obs_value) VALUES
  ('O=C1NC(=O)C(c2ccccc2)(c2ccccc2)N1', 1.9),
  ('O=P1(N(CCCl)CCCl)NCCCO1 (stereo unspecified) [CYCLOPHOSPHAMIDE ANHYDROUS]', 1.9),
  ('CS(=O)(=O)Nc1ccc([N+](=O)[O-])cc1Oc1ccccc1 [NIMESULIDE]', 2);

Request: Could you share which KIDNEY_TOTAL value was measured for `O=C1CN(/N=C/c2ccc(-c3ccc([N+](=O)[O-])cc3)o2)C(O)=N1` ?
Response: 2.2

Request: Field entry: `Cc1cnc(NC(=O)C2=C(O)c3ccccc3S(=O)(=O)N2C)s1`
Response: 2

Request: Field entry: `Cn1c(=O)c2c(ncn2C)n(C)c1=O`
Response: 2

###

organism: Rattus norvegicus; assay: Open TG-GATES - Regimen: Daily Repeat; assay type: toxicity, organism-based, Sprague-Dawley; design: regimen Daily Repeat, gender Male, age 6 weeks; settings: in vivo, po, 0 mg/kg, […], tissue Plasma, route gavage, dose level Control, time 28 day
The following molecules are shown together with reported TC values.

Examples with their reported TC follow.
INSERT INTO measurements (molecule, obs_value) VALUES
  ('COc1ccc(O)c(C(C)(C)C)c1.COc1ccc(O)cc1C(C)(C)C [BUTYLATED HYDROXYANISOLE]', '68.6 mg/dL'),
  ('Cc1cnc(NC(=O)C2=C(O)c3ccccc3S(=O)(=O)N2C)s1 [MELOXICAM]', '69 mg/dL'),
  ('O=C1NC(=O)C(c2ccccc2)(c2ccccc2)N1 [PHENYTOIN]', '67.8 mg/dL'),
  ('Cn1c(=O)c2c(ncn2C)n(C)c1=O [CAFFEINE]', '71 mg/dL'),
  ('COc1ccc(Cl)cc1C(=O)NCCc1ccc(S(=O)(=O)NC(=O)NC2CCCCC2)cc1 [GLYBURIDE]', '75.4 mg/dL'),
  ('O=C1CN(/N=C/c2ccc(-c3ccc([N+](=O)[O-])cc3)o2)C(O)=N1 [DANTROLENE]', '69.6 mg/dL');

Request: Could you share which TC value was measured for O=P1(N(CCCl)CCCl)NCCCO1 (stereo unspecified) [CYCLOPHOSPHAMIDE ANHYDROUS] ?
Response: 67 mg/dL

Request: Field entry: CS(=O)(=O)Nc1ccc([N+](=O)[O-])cc1Oc1ccccc1 [NIMESULIDE]
Response: 73.2 mg/dL

Request: Field entry: C=CCO [ALLYL ALCOHOL]
Response: 71.2 mg/dL

Request: Field entry: Cc1cccc(Nc2cc(Cl)nc(SCC(=O)O)n2)c1C [PIRINIXIC ACID]
Response: 75.8 mg/dL

Request: Field entry: Cn1cnc([N+](=O)[O-])c1Sc1ncnc2nc[nH]c12 [AZATHIOPRINE]
Response: 66 mg/dL
